System: BT-549 breast
Experiment: NCI tumour cell line growth inhibition, 48 h
Measurement Type: TGI

Prompt: For CC(C)(C)[Si](C)(C)OC1CCOC1(O)c1ccccn1 (stereo not drawn) , what is its reported TGI?
Response: > 100 µM

Prompt: Next record, please: Cc1nn(C(=O)c2ccccc2O)c2c1C(c1ccc([N+](=O)[O-])cc1)SC(N)=N2 (stereo not drawn)
Response: > 10 µM

Prompt: Next record, please: COc1cc2c3cc1Oc1cc(ccc1O)C[C@@H]1c4c(cc(OC)c(O)c4Oc4ccc(cc4)C[C@@H]3[N+](C)(C)CC2)CC[N+]1(C)C
Response: > 100 µM

Provenance of the data: PubChem BioAssay (NCI)
